# TESTED SYSTEM: somatostatin receptor SST-3 (CHO-SST-3 (mb)) (Homo sapiens (Human), UniProt P32745 1-418)
# Sequence (P32745 whole entry, form in doubt): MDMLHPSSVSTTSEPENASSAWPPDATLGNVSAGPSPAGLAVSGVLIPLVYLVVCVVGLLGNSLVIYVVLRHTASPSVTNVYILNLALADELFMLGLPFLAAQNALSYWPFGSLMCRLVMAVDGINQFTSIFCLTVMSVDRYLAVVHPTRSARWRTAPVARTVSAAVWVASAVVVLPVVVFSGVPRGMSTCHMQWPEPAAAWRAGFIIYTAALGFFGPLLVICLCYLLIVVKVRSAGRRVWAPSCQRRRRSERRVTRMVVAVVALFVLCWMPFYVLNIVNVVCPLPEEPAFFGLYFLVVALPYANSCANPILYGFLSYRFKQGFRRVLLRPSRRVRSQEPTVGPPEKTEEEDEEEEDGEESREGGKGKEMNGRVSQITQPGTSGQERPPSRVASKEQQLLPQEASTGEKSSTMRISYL
# METHOD: radioligand competition binding, CHO-SST-3 (mb)

{"BINDER": "TGRRRGGFCYWKVCT ([TcO]3+ core chelated by the N-terminal HTGRRR tag; free N-terminus; the RC-121 part carries D-Phe, D-Trp, a C-terminal amide and the preserved disulfide bridge) [TcO[HTGRRRGG-RC-121]]", "Ki": "10 nM"}
